The origin of these recorded values is patent US20180289620A1.

assay: Pharmacokinetics of Nab-2 in monkeys; type: in vivo; conditions: male, cynomolgus monkey, blood, iv, 10 mg/kg, Nab-2 IV 10 mg/kg, read-out: Vz
measured metric: Vd (L/kg)
Please respond with the number in L/kg and leave the unit unwritten.

Notebook: CCCCCC(=O)O[C@@H](C(=O)O[C@H]1C[C@@]2(O)[C@@H](OC(=O)c3ccccc3)C3[C@](C)(C(=O)[C@H](O)C(=C1C)C2(C)C)[C@@H](O)C[C@H]1OC[C@@]31OC(C)=O)[C@@H](NC(=O)OC(C)(C)C)c1ccccc1 (stereo partly shown) , Vd read as 9.93

###

test: Pharmacokinetics of Nab-2 in monkeys; type: in vivo; details: male, blood; Nab-2 IV 10 mg/kg, cynomolgus monkey; label = analyte
Please provide measured AUC(0-inf) for the entries that follow.

Notebook: CCCCCC(=O)O[C@@H](C(=O)O[C@H]1C[C@@]2(O)[C@@H](OC(=O)c3ccccc3)C3[C@](C)(C(=O)[C@H](O)C(=C1C)C2(C)C)[C@@H](O)C[C@H]1OC[C@@]31OC(C)=O)[C@@H](NC(=O)OC(C)(C)C)c1ccccc1 (some centres unmarked) , AUC(0-inf) read as 5350 ng·h/mL

Notebook: CC(=O)O[C@@]12CO[C@@H]1C[C@H](O)[C@@]1(C)C(=O)[C@H](O)C3=C(C)[C@@H](OC(=O)[C@H](O)[C@@H](NC(=O)OC(C)(C)C)c4ccccc4)C[C@@](O)([C@@H](OC(=O)c4ccccc4)C12)C3(C)C (some centres unmarked) [Docetaxel, docetaxel, reference compound] , AUC(0-inf) read as 314 ng·h/mL

###

Please provide measured concentration at 0 hr for the entries that follow.
test: Pharmacokinetics of Nab-2 in monkeys; assay type: in vivo; settings: male, blood; Nab-2 IV 20 mg/kg, cynomolgus monkey; time 0 hr; label = analyte
Please respond with the number in ng/mL and leave the unit unwritten.

Notebook: CC(=O)O[C@@]12CO[C@@H]1C[C@H](O)[C@@]1(C)C(=O)[C@H](O)C3=C(C)[C@@H](OC(=O)[C@H](O)[C@@H](NC(=O)OC(C)(C)C)c4ccccc4)C[C@@](O)([C@@H](OC(=O)c4ccccc4)C12)C3(C)C (some centres unmarked) [Docetaxel, docetaxel, reference compound] , concentration at 0 hr read as 0

Notebook: CCCCCC(=O)O[C@@H](C(=O)O[C@H]1C[C@@]2(O)[C@@H](OC(=O)c3ccccc3)C3[C@](C)(C(=O)[C@H](O)C(=C1C)C2(C)C)[C@@H](O)C[C@H]1OC[C@@]31OC(C)=O)[C@@H](NC(=O)OC(C)(C)C)c1ccccc1 (some centres unmarked) , concentration at 0 hr read as 0

###

assay: Pharmacokinetics of Nab-2 in monkeys; assay type: in vivo; conditions: male, cynomolgus monkey, blood, iv, 20 mg/kg, Nab-2 IV 20 mg/kg, read-out: Vss
measured metric: Vd (L/kg)
Please respond with the number in L/kg and leave the unit unwritten.

Notebook: CCCCCC(=O)O[C@@H](C(=O)O[C@H]1C[C@@]2(O)[C@@H](OC(=O)c3ccccc3)C3[C@](C)(C(=O)[C@H](O)C(=C1C)C2(C)C)[C@@H](O)C[C@H]1OC[C@@]31OC(C)=O)[C@@H](NC(=O)OC(C)(C)C)c1ccccc1 (stereo partly shown) , Vd read as 8.74

###

test: Pharmacokinetics of Nab-2 in monkeys; type: in vivo; settings: male, cynomolgus monkey, blood, iv, 5 mg/kg, Nab-2 IV 5 mg/kg, read-out: Vz
measured metric: Vd (L/kg)
Please respond with the number in L/kg and leave the unit unwritten.

Notebook: CCCCCC(=O)O[C@@H](C(=O)O[C@H]1C[C@@]2(O)[C@@H](OC(=O)c3ccccc3)C3[C@](C)(C(=O)[C@H](O)C(=C1C)C2(C)C)[C@@H](O)C[C@H]1OC[C@@]31OC(C)=O)[C@@H](NC(=O)OC(C)(C)C)c1ccccc1 (stereo partly shown) [Compound 2, 2′-Hexanoyl Docetaxel] , Vd read as 7.18

###

assay: Pharmacokinetics of Nab-2 in monkeys; type: in vivo; details: male, blood; Nab-2 IV 5 mg/kg, cynomolgus monkey; label = analyte
measured metric: AUC(0-inf)
In your response, put the unit directly after the numeric value.

Notebook: CCCCCC(=O)O[C@@H](C(=O)O[C@H]1C[C@@]2(O)[C@@H](OC(=O)c3ccccc3)C3[C@](C)(C(=O)[C@H](O)C(=C1C)C2(C)C)[C@@H](O)C[C@H]1OC[C@@]31OC(C)=O)[C@@H](NC(=O)OC(C)(C)C)c1ccccc1 (some centres unmarked) , AUC(0-inf) read as 3610 ng·h/mL

Notebook: CC(=O)O[C@@]12CO[C@@H]1C[C@H](O)[C@@]1(C)C(=O)[C@H](O)C3=C(C)[C@@H](OC(=O)[C@H](O)[C@@H](NC(=O)OC(C)(C)C)c4ccccc4)C[C@@](O)([C@@H](OC(=O)c4ccccc4)C12)C3(C)C (some centres unmarked) [Docetaxel, docetaxel, reference compound] , AUC(0-inf) read as 175 ng·h/mL

###

test: Pharmacokinetics of Nab-2 in monkeys; type: in vivo; settings: male, cynomolgus monkey, blood, iv, 5 mg/kg, Nab-2 IV 5 mg/kg, read-out: Vss
measured metric: Vd (L/kg)
Please respond with the number in L/kg and leave the unit unwritten.

Notebook: CCCCCC(=O)O[C@@H](C(=O)O[C@H]1C[C@@]2(O)[C@@H](OC(=O)c3ccccc3)C3[C@](C)(C(=O)[C@H](O)C(=C1C)C2(C)C)[C@@H](O)C[C@H]1OC[C@@]31OC(C)=O)[C@@H](NC(=O)OC(C)(C)C)c1ccccc1 (stereo partly shown) [Compound 2, 2′-Hexanoyl Docetaxel] , Vd read as 5.84

###

test: Pharmacokinetics of Nab-2 in monkeys; assay type: in vivo; conditions: male, blood; Nab-2 IV 20 mg/kg, cynomolgus monkey; time 2 hr; label = analyte
measured metric: concentration at 2 hr (ng/mL)
Please respond with the number in ng/mL and leave the unit unwritten.

Notebook: CC(=O)O[C@@]12CO[C@@H]1C[C@H](O)[C@@]1(C)C(=O)[C@H](O)C3=C(C)[C@@H](OC(=O)[C@H](O)[C@@H](NC(=O)OC(C)(C)C)c4ccccc4)C[C@@](O)([C@@H](OC(=O)c4ccccc4)C12)C3(C)C (some centres unmarked) [Docetaxel, docetaxel, reference compound] , concentration at 2 hr read as 69.2

Notebook: CCCCCC(=O)O[C@@H](C(=O)O[C@H]1C[C@@]2(O)[C@@H](OC(=O)c3ccccc3)C3[C@](C)(C(=O)[C@H](O)C(=C1C)C2(C)C)[C@@H](O)C[C@H]1OC[C@@]31OC(C)=O)[C@@H](NC(=O)OC(C)(C)C)c1ccccc1 (some centres unmarked) [Compound 2, 2′-Hexanoyl Docetaxel] , concentration at 2 hr read as 958

###

assay: Log P of hydrophobic taxane derivatives; assay type: physicochemical; details: method not stated
Please provide measured logP for the entries that follow.

Notebook: CCCCCC(=O)O[C@@H](C(=O)O[C@H]1C[C@@]2(O)[C@@H](OC(=O)c3ccccc3)C3[C@](C)(C(=O)[C@H](O)C(=C1C)C2(C)C)[C@@H](O)C[C@H]1OC[C@@]31OC(C)=O)[C@@H](NC(=O)OC(C)(C)C)c1ccccc1 (stereo partly shown) , logP read as 6.44

Notebook: CC(=O)O[C@@]12CO[C@@H]1C[C@H](O)[C@@]1(C)C(=O)[C@H](O)C3=C(C)[C@@H](OC(=O)[C@H](OC(=O)c4ccccc4)[C@@H](NC(=O)OC(C)(C)C)c4ccccc4)C[C@@](O)([C@@H](OC(=O)c4ccccc4)C12)C3(C)C (stereo partly shown) , logP read as 6.67

Notebook: CCC(=O)O[C@@H](C(=O)O[C@H]1C[C@@]2(O)[C@@H](OC(=O)c3ccccc3)C3[C@](C)(C(=O)[C@H](O)C(=C1C)C2(C)C)[C@@H](O)C[C@H]1OC[C@@]31OC(C)=O)[C@@H](NC(=O)OC(C)(C)C)c1ccccc1 (stereo partly shown) , logP read as 5.31

Notebook: CCCCC(=O)O[C@@H](C(=O)O[C@H]1C[C@@]2(O)[C@@H](OC(=O)c3ccccc3)C3[C@](C)(C(=O)[C@H](O)C(=C1C)C2(C)C)[C@@H](O)C[C@H]1OC[C@@]31OC(C)=O)[C@@H](NC(=O)OC(C)(C)C)c1ccccc1 (stereo partly shown) , logP read as 6.37

###

assay: Pharmacokinetics of Nab-2 in monkeys; type: in vivo; conditions: male, blood; Nab-2 IV 20 mg/kg, cynomolgus monkey; time 0.083 hr; label = analyte
Please provide measured concentration at […] for the entries that follow.
In your response, put the unit directly after the numeric value.

Notebook: CCCCCC(=O)O[C@@H](C(=O)O[C@H]1C[C@@]2(O)[C@@H](OC(=O)c3ccccc3)C3[C@](C)(C(=O)[C@H](O)C(=C1C)C2(C)C)[C@@H](O)C[C@H]1OC[C@@]31OC(C)=O)[C@@H](NC(=O)OC(C)(C)C)c1ccccc1 (some centres unmarked) , concentration at […] read as 2390 ng/mL

Notebook: CC(=O)O[C@@]12CO[C@@H]1C[C@H](O)[C@@]1(C)C(=O)[C@H](O)C3=C(C)[C@@H](OC(=O)[C@H](O)[C@@H](NC(=O)OC(C)(C)C)c4ccccc4)C[C@@](O)([C@@H](OC(=O)c4ccccc4)C12)C3(C)C (some centres unmarked) [Docetaxel, docetaxel, reference compound] , concentration at […] read as 382 ng/mL
